Assay: CREB reporter modulators without forskolin, primary screen, cell-based, PC12, CRE-LacZ reporter, unstimulated (AID 1145)
Details: no forskolin, luminescence, 4.5 h, higher = more signal, called active from +8 up or from −8 down
Please use satisfied whenever z-score is not below 0.8, and not satisfied whenever it is.

| molecule | assigned class |
| --- | --- |
| C=C(C)[C@@H]1CC=C(C(O)C2C=CC3C(=O)N(c4ccccc4)C(=O)C3N2Nc2ccccc2)CC1 (stereo partly drawn) | not satisfied |
| CO[C@H]1O[C@H](CO)[C@@H](OC(=O)Nc2cccc(F)c2)[C@H](OC(=O)Nc2ccccc2)[C@@H]1OC(=O)Nc1ccccc1 | not satisfied |

// inclusive: z-score at least 0.8? input: CCCC[C@@H]1C[C@H]1[C@@H](NC(=O)c1cccs1)c1ccc(-c2ccccc2)cc1
satisfied

// inclusive: z-score at least 0.8? input: CN1C(=O)C2C=CC(C(O)c3ccco3)N(Nc3ccccc3)C2C1=O (stereo not drawn)
not satisfied

// inclusive: z-score at least 0.8? input: CN1C(=O)C2C=CC(C(O)C3CC=CCC3)N(N(c3ccccc3)c3ccccc3)C2C1=O (stereo not drawn)
not satisfied

// inclusive: z-score at least 0.8? input: C[C@H]1NC(=O)[C@@]23C(=O)N[C@@H](Cc4ccccc4)C2[C@H](C)[C@@]2(C)O[C@H]2C3/C=C/C/C=C\CNC(=O)[C@@H]2CCCN2C1=O (stereo partly drawn)
satisfied

// inclusive: z-score at least 0.8? input: CCCC[C@H]1OB(O)C[C@H]2C1=C(COC)Cn1c(=O)n(-c3ccccc3)c(=O)n12
not satisfied
